target_of_assay: CDK5/p25 (Homo sapiens)
Sequence (Q00535 whole entry): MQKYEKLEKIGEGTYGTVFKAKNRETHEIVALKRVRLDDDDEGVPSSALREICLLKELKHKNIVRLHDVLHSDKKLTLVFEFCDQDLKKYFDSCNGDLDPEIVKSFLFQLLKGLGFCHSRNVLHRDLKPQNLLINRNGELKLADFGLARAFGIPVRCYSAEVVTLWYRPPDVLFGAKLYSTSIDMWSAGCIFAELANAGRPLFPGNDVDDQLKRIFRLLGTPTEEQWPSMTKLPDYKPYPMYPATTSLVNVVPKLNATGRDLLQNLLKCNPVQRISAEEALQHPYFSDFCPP
Sequence (Q15078 99-307 partner limits assumed): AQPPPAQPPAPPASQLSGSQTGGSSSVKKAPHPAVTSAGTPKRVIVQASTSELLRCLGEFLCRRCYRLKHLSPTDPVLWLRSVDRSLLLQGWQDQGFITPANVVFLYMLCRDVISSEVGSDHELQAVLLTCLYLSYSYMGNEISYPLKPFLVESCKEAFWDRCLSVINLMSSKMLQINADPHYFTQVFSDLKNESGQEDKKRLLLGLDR
method: SelectScreen kinase specificity survey
test_context: estimated, abridged dose response curve, read-out: Kinase inhibitory activity EC50
Procedure: Testing of the compounds described in this invention was carried out using the SelectScreen™ platform from Invitrogen, Inc. (Carlsbad. Calif., USA) and the details of its performance are readily viewed via the web by linking to: http://www.invitrogen.com/downloads/SelectScrn_Brochure.pdf. Briefly, the approach is based on treating each specific kinase with a unique substrate and optical reporter system in the presence of ATP at 100 micromolar. […]
experimental_readout: EC50 (µM)
Hi! Could you send only the number? It should be in µM, unit omitted.

Qu. // lookup EC50 | system=CDK5/p25 (Homo sapiens) | key= CN(C)CCCNc1ccc2ncn3c4ccc5[nH]ncc5c4c(=O)c1c23 [Compound (IV)]
Ans. 1.58
